The reported measurements were obtained from patent US20140005103A1.

Would you mind telling me the reported IC50 at 8 min of each entry?
assayed-system: CYP3A4 (Homo sapiens)
Sequence (P08684 2-503): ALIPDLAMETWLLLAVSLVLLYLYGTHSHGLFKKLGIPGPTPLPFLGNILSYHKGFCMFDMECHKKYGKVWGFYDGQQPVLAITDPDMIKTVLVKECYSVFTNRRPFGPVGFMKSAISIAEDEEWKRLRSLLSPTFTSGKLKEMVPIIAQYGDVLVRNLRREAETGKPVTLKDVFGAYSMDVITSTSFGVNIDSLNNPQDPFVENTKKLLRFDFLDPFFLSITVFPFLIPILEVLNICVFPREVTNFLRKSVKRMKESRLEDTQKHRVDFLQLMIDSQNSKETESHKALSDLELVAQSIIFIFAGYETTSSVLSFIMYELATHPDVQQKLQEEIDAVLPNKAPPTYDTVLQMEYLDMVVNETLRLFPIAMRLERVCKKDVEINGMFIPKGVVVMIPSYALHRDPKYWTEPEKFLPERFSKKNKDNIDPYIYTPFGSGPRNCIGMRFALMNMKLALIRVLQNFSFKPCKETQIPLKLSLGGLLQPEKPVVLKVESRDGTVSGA
method-description: IC50 vs CYP3A by inhibition of lopinavir metabolism in human liver microsomes
Format: biochemical
condition-set: pH 7.4, human liver microsomes, 1.5 μM lopinavir, 8 min at 37° C., test concentrations 0.098-100 nM, read-out: 3A4(LPV)
Numbers only, in nM.

[Q] Item: `C[C@H](c1ccc(F)cc1)n1cncc1CN1CCN(S(=O)(=O)c2cnc(N3C[C@@H]4C[C@@H](O)CN4C[C@@H]3C)s2)CC1` Test system: CYP3A4 (Homo sapiens) Read-out: IC50 at 8 min Value: ?
[A] 1.9

Turning to the following molecule.
[Q] What value of IC50 at 8 min on CYP3A4 (Homo sapiens) does `C[C@H](c1ccc(F)cc1)n1cncc1CN1CCN(S(=O)(=O)c2cnc(N3CCN4C[C@H](O)CC[C@H]4C3)s2)CC1` have?
[A] 1.7
